# Test system: Aspergillus fumigatus
# assay.details: Antifungal activity against Aspergillus fumigatus 231 after 48 hrs by microdilution method
# Type: functional
# measurement.conditions: Aspergillus fumigatus, 231, 48 h
Below is a list of entries, each paired with its recorded log10(MIC80) value.
result.type: log10(MIC80) (log10 of the value in µM)

O=C1OC(COc2cccc(Br)c2)C=C1c1ccc(Br)cc1 (configuration not stated) = 1.19
O=C1OC(COc2ccc(C(=O)O)cc2)C=C1c1ccc(Br)cc1 (configuration not stated) = 0.59
O=C1OC(COc2ccccc2)C=C1c1ccc(Br)cc1 (configuration not stated) = 1.19
COCC1C=C(c2ccc(Br)cc2)C(=O)O1 (configuration not stated) = 1.80
C=C1C=C(c2ccc(Br)cc2)C(=O)O1 = 0.89
O=C1OC(COc2ccc(O)cc2)C=C1c1ccc(Br)cc1 (configuration not stated) = 0.89
CC(=O)OC/C=C1/C=C(c2ccc(Br)cc2)C(=O)O1 = 1.49
O=C1OC(COc2ccc(I)cc2)C=C1c1ccc(Br)cc1 (configuration not stated) = 0.89
